test: Plasma stability, mouse plasma
MEASURE NAME: remaining at 4 h, 50 μM

Data request: For the compound CC(C)C[C@H](NC(=O)[C@H](Cc1ccccc1)NC(=O)CNC(=O)CNC(=O)[C@@H](N)Cc1ccc(O)cc1)C(=O)O , what remaining at 4 h, 50 μM is on record?
Data returned: > 90%
